// reported Emax for each item listed
- tested_target: UniProt Q96GG9
- assay_text: Intact protein MS analysis with the RapidFire-TOF system (covalent adduct formation)
- Format: binding
- settings: 400 nM DCN1, incubated at room temperature for 3 hours

| compound | Emax |
| --- | --- |
| CCN1C(=O)[C@H](NC(=O)c2cccc(C(F)(F)F)c2)[C@@H](c2cccc(NC(=O)CC#N)c2)c2c(C)nn(-c3ccccc3)c21 (racemic) | 0 to 30% |
| CCN1C(=O)[C@H](NC(=O)c2cccc(C(F)(F)F)c2)[C@@H](c2cccc(NS(=O)(=O)CCl)c2)c2c(C)nn(-c3ccccc3)c21 (racemic) | 0 to 30% |
| C=C(CN(C)C)C(=O)Nc1ccccc1[C@H]1c2cnn(-c3ccccc3)c2N(CC)C(=O)[C@@H]1NC(=O)c1cccc(C(F)(F)F)c1 (racemic) | 30 to 80% |
| C=C(CN1CCOCC1)C(=O)Nc1cccc([C@H]2c3c(C)nn(-c4ccccc4)c3N(CC)C(=O)[C@@H]2NC(=O)c2ccn(C(F)(F)F)n2)c1 (racemic) | 80 to 100% |
| CCN1C(=O)[C@H](NC(=O)c2cccc(C(F)(F)F)c2)[C@@H](c2cccc(NC(=O)[C@H](C)Br)c2)c2c(C)nn(-c3ccccc3)c21 (mixture of isomers) | 80 to 100% |
| C=C(CN1CCN(C2COC2)CC1)C(=O)N(C)Cc1cccc([C@@H]2c3cnn(-c4ccccc4)c3N(CC)C(=O)[C@H]2NC(=O)c2nccc(C(F)(F)F)n2)c1 | 80 to 100% |
| C=C(CN1CCOCC1)C(=O)NCc1cccc([C@@H]2c3cnn(-c4ccccc4)c3N(CC)C(=O)[C@H]2NC(=O)c2nccc(C(F)(F)F)n2)c1 | 80 to 100% |
| C=C(CN1CCOCC1)C(=O)NCc1cccc([C@@H]2c3cnn(-c4ccccc4)c3N(CC)C(=O)[C@H]2NC(=O)c2cccc(C(F)(F)F)c2)c1 | 80 to 100% |
| C/C=C/C(=O)Nc1cccc([C@H]2c3c(C)nn(-c4ccccc4)c3N(CC)C(=O)[C@H]2NC(=O)c2cccc(C(F)(F)F)c2)c1 (racemic) | 0 to 30% |

----------
- tested_target: DCN1 (DCUND1) protein PONY domain (Homo sapiens (Human), UniProt Q96GG9)
- Sequence (Q96GG9 60-248): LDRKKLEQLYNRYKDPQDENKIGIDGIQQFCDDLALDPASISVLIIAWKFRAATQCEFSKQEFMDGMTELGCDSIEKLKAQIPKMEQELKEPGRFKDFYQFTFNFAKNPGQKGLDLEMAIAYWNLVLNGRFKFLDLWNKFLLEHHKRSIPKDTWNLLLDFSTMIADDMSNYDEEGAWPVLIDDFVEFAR
- assay_text: TR-FRET assay (binding to DCN-1, displacement of FAM-labeled probe)
- settings: 24 hr after treatment with compound; read-out: TR FRET IC50 24 hr
- Procedure: The TR-FRET assay was designed following the Scott et al. protocol (Scott et al., Nat Chem Biol. 2017 August; 13(8): 850-857. doi:10.1038/nchembio.2386). […] The TR-FRET ratio between Tb-DCN1 and the FAM-labeled probe was measured in a 384-well opti-plate (Perkin Elmer) using a plate reader (BMG) at 1, 5, and 24 hrs after treatment with compound (final DMSO concentration of 0.1%). […]
Examples of compounds with documented IC50 follow.
readout_label: IC50

| compound | tested_target | observed_result |
| --- | --- | --- |
| CCN1C(=O)[C@H](NC(=O)c2cccc(C(F)(F)F)c2)[C@@H](c2cccc(NC(=O)/C=C/CN3CCOCC3)c2)c2c(C)nn(-c3ccccc3)c21 (racemic) [Compound I-47] | DCN1 (DCUND1) protein PONY domain (Homo sapiens (Human), UniProt Q96GG9) | 1000 to 3000 nM |
| C=C(CN1CC2(CCO2)C1)C(=O)NCc1cccc([C@@H]2c3cnn(-c4ccccc4)c3N(CC)C(=O)[C@H]2NC(=O)c2cccc(C(F)(F)F)c2)c1 [Compound I-63] | DCN1 (DCUND1) protein PONY domain (Homo sapiens (Human), UniProt Q96GG9) | ≤ 200 nM |
| C=C(CN(C)C)C(=O)Nc1cccc([C@H]2c3c(C)nn(-c4ccccc4)c3N(CC)C(=O)[C@@H]2NC(=O)c2cccc(C(F)(F)F)c2)c1 (racemic) [Compound I-146] | DCN1 (DCUND1) protein PONY domain (Homo sapiens (Human), UniProt Q96GG9) | ≤ 200 nM |
| C/C=C(\CN1CCN(C2COC2)CC1)C(=O)NCc1cccc([C@@H]2c3cnn(-c4ccccc4)c3N(CC)C(=O)[C@H]2NC(=O)c2cccc(C(F)(F)F)c2)c1 [Compound I-222] | DCN1 (DCUND1) protein PONY domain (Homo sapiens (Human), UniProt Q96GG9) | ≤ 200 nM |
| C=C(CN1CC2CC1CO2)C(=O)NCc1cccc([C@@H]2c3cnn(-c4ccccc4)c3N(CC)C(=O)[C@H]2NC(=O)c2cccc(C(F)(F)F)c2)c1 (some centres unmarked) [Compound I-7] | DCN1 (DCUND1) protein PONY domain (Homo sapiens (Human), UniProt Q96GG9) | ≤ 200 nM |
| C=C(CN1C[C@@H]2C[C@H]1CO2)C(=O)NCc1cccc([C@@H]2c3cnn(-c4ccccc4)c3N(CC)C(=O)[C@H]2NC(=O)c2nccc(C(F)(F)F)n2)c1 (mixture of isomers) [Compound I-160] | DCN1 (DCUND1) protein PONY domain (Homo sapiens (Human), UniProt Q96GG9) | ≤ 200 nM |
| C=C(CN1CCOCC1)C(=O)NCc1ccccc1[C@@H]1c2cnn(-c3ccccc3)c2N(CC)C(=O)[C@H]1NC(=O)c1cccc(C(F)(F)F)c1 (racemic) [Compound I-153] | DCN1 (DCUND1) protein PONY domain (Homo sapiens (Human), UniProt Q96GG9) | ≤ 200 nM |
| CCN1C(=O)[C@@H](NC(=O)c2cccc(C(F)(F)F)c2)[C@H](c2cccc(CNC(=O)/C(C)=C/C(=O)OC)c2)c2cnn(-c3ccccc3)c21 [Compound I-95] | DCN1 (DCUND1) protein PONY domain (Homo sapiens (Human), UniProt Q96GG9) | 1000 to 3000 nM |
| C=C(CN1CCOCC1)C(=O)N(C)Cc1cccc([C@@H]2c3cnn(-c4ccccc4)c3N(CC)C(=O)[C@H]2NC(=O)c2ccn(C(F)(F)F)n2)c1 [Compound I-295] | DCN1 (DCUND1) protein PONY domain (Homo sapiens (Human), UniProt Q96GG9) | ≤ 200 nM |
| C=C(C(=O)NCc1cccc([C@@H]2c3cnn(-c4ccccc4)c3N(CC)C(=O)[C@H]2NC(=O)c2nccc(C(F)(F)F)n2)c1)C(C)N(C)C1COC1 (some centres unmarked) [Compound I-217] | DCN1 (DCUND1) protein PONY domain (Homo sapiens (Human), UniProt Q96GG9) | ≤ 200 nM |
| C=C(C(=O)NCc1cccc([C@@H]2c3cnn(-c4ccccc4)c3N(CC)C(=O)[C@H]2NC(=O)c2cccc(C(F)(F)F)c2)c1)C(C)N1CCN(C2COC2)CC1 (some centres unmarked) [Compound I-317] | DCN1 (DCUND1) protein PONY domain (Homo sapiens (Human), UniProt Q96GG9) | ≤ 200 nM |

----------
- tested_target: DCN1 (DCUND1) protein PONY domain (Homo sapiens (Human), UniProt Q96GG9)
- assay_text: TR-FRET assay (binding to DCN-1, displacement of FAM-labeled probe)
- settings: 24 hr after treatment with compound; read-out: TR FRET IC50 24 hr
readout_label: IC50

| molecule | tested_target | readout_label | observed_result |
| --- | --- | --- | --- |
| C=C(F)C(=O)Nc1cccc([C@H]2c3c(C)nn(-c4ccccc4)c3N(CC)C(=O)[C@@H]2NC(=O)c2cccc(C(F)(F)F)c2)c1 (racemic) [Compound I-140] | DCN1 (DCUND1) protein PONY domain (Homo sapiens (Human), UniProt Q96GG9) | IC50 | > 3000 nM |
| CCN1C(=O)[C@@H](NC(=O)c2cccc(C(F)(F)F)c2)[C@H](c2ccccc2CNC(=O)C(C)Cl)c2cnn(-c3ccccc3)c21 (mixture of isomers) [Compound I-114] | DCN1 (DCUND1) protein PONY domain (Homo sapiens (Human), UniProt Q96GG9) | IC50 | 1000 to 3000 nM |
| CCN1C(=O)[C@H](NC(=O)c2cccc(C(F)(F)F)c2)[C@@H](c2cccc(NC(=O)C#CCN(C)C)c2)c2cnn(-c3ccccc3)c21 (racemic) [Compound I-132] | DCN1 (DCUND1) protein PONY domain (Homo sapiens (Human), UniProt Q96GG9) | IC50 | 200 to 1000 nM |
| C=C(CN1CCN(C2COC2)CC1)C(=O)NCc1cccc([C@@H]2c3cnn(-c4ccccc4)c3N(CC)C(=O)[C@H]2NC(=O)c2nccc(C(F)(F)F)n2)c1 [Compound I-163] | DCN1 (DCUND1) protein PONY domain (Homo sapiens (Human), UniProt Q96GG9) | IC50 | ≤ 200 nM |
| C=C(C(=O)NCc1cccc([C@@H]2c3cnn(-c4ccccc4)c3N(CC)C(=O)[C@H]2NC(=O)c2ccn(C(F)(F)F)n2)c1)C(C)N1CCOCC1 (stereo partly drawn) [Compound I-296] | DCN1 (DCUND1) protein PONY domain (Homo sapiens (Human), UniProt Q96GG9) | IC50 | ≤ 200 nM |
| C/C=C(\CN1CCC1)C(=O)NCc1cccc([C@@H]2c3cnn(-c4ccccc4)c3N(CC)C(=O)[C@H]2NC(=O)c2ccn(C3CC3)n2)c1 [Compound I-309] | DCN1 (DCUND1) protein PONY domain (Homo sapiens (Human), UniProt Q96GG9) | IC50 | ≤ 200 nM |
| CCN1C(=O)[C@@H](NC(=O)c2cccc(C(F)(F)F)c2)[C@H](c2cccc(CN(C)C#N)c2)c2cnn(-c3ccccc3)c21 (racemic) [Compound I-104] | DCN1 (DCUND1) protein PONY domain (Homo sapiens (Human), UniProt Q96GG9) | IC50 | 1000 to 3000 nM |
| CCN1C(=O)[C@@H](NC(=O)c2cccc(C(F)(F)F)c2)[C@H](c2cccc(NC(=O)/C=C/CN(C)C)c2F)c2cnn(-c3ccccc3)c21 (racemic) [Compound I-56] | DCN1 (DCUND1) protein PONY domain (Homo sapiens (Human), UniProt Q96GG9) | IC50 | ≤ 200 nM |
| C=C(CN1CCOCC1)C(=O)Nc1cccc([C@H]2c3c(C)nn(-c4ccccc4)c3N(CCO)C(=O)[C@@H]2NC(=O)c2cccc(C(F)(F)F)c2)c1 (racemic) [Compound I-147] | DCN1 (DCUND1) protein PONY domain (Homo sapiens (Human), UniProt Q96GG9) | IC50 | ≤ 200 nM |
| C/C=C(/CN1CCN(C2COC2)CC1)C(=O)N(C)c1cccc([C@@H]2c3cnn(-c4ccccc4)c3N(CC)C(=O)[C@H]2NC(=O)c2csc(C(F)(F)F)n2)c1 [Compound I-369] | DCN1 (DCUND1) protein PONY domain (Homo sapiens (Human), UniProt Q96GG9) | IC50 | 1000 to 3000 nM |
| C=C(CN1CCOCC1)C(=O)NCc1cccc([C@@H]2c3cnn(-c4ccccc4)c3N(CC)C(=O)[C@H]2NC(=O)c2ccn(CC#N)n2)c1 [Compound I-340] | DCN1 (DCUND1) protein PONY domain (Homo sapiens (Human), UniProt Q96GG9) | IC50 | 200 to 1000 nM |
| C=C(CN1CC(F)(F)C1)C(=O)NCc1cccc([C@H]2c3cnn(-c4ccccc4)c3N(CC)C(=O)[C@@H]2NC(=O)c2cccc(C(F)(F)F)c2)c1 [Compound I-96] | DCN1 (DCUND1) protein PONY domain (Homo sapiens (Human), UniProt Q96GG9) | IC50 | 1000 to 3000 nM |
| C=C(CN1CCOCC1)C(=O)N[C@H](C)c1cccc([C@@H]2c3cnn(-c4ccccc4)c3N(CC)C(=O)[C@H]2NC(=O)c2nccc(C(F)(F)F)n2)c1 (mixture of isomers) [Compound I-281] | DCN1 (DCUND1) protein PONY domain (Homo sapiens (Human), UniProt Q96GG9) | IC50 | 200 to 1000 nM |
| C=C(CN1CCOCC1)C(=O)Nc1cccc([C@@H]2c3c(C)nn(-c4ccccc4)c3N(CCO)C(=O)[C@@H]2NC(=O)c2cccc(C(F)(F)F)c2)c1 (racemic) [Compound I-55] | DCN1 (DCUND1) protein PONY domain (Homo sapiens (Human), UniProt Q96GG9) | IC50 | 1000 to 3000 nM |
| CCN1C(=O)[C@@H](NC(=O)c2cccc(C(F)(F)F)c2)[C@H](c2cccc(CNC(=O)/C=C/C(=O)OC)c2)c2cnn(-c3ccccc3)c21 (racemic) [Compound I-143] | DCN1 (DCUND1) protein PONY domain (Homo sapiens (Human), UniProt Q96GG9) | IC50 | 200 to 1000 nM |
| C=C(CN1CCOCC1)C(=O)N[C@@H](C)c1cccc([C@@H]2c3cnn(-c4ccccc4)c3N(CC)C(=O)[C@H]2NC(=O)c2nccc(C(F)(F)F)n2)c1 [Compound I-299] | DCN1 (DCUND1) protein PONY domain (Homo sapiens (Human), UniProt Q96GG9) | IC50 | 1000 to 3000 nM |
| CCN1C(=O)[C@@H](NC(=O)c2cccc(C(F)(F)F)c2)[C@H](c2cncc(NC(=O)C3=CCC3)c2)c2cnn(-c3ccccc3)c21 (racemic) [Compound I-36] | DCN1 (DCUND1) protein PONY domain (Homo sapiens (Human), UniProt Q96GG9) | IC50 | 1000 to 3000 nM |
| C=C(C(=O)NCc1cccc([C@@H]2c3cnn(-c4ccccc4)c3N(CC)C(=O)[C@H]2NC(=O)c2cccc(C(F)F)c2)c1)C(C)N(C)C1COC1 (stereo partly drawn) [Compound I-277] | DCN1 (DCUND1) protein PONY domain (Homo sapiens (Human), UniProt Q96GG9) | IC50 | ≤ 200 nM |
| C/C=C(/CN1CCOCC1)C(=O)NCc1cccc([C@@H]2c3cnn(-c4ccccc4)c3N(CC)C(=O)[C@H]2NC(=O)c2ccn(C3CC3)n2)c1 [Compound I-381] | DCN1 (DCUND1) protein PONY domain (Homo sapiens (Human), UniProt Q96GG9) | IC50 | 1000 to 3000 nM |
| C=C(COC)C(=O)Nc1cccc([C@H]2c3c(C)nn(-c4ccccc4)c3N(CC)C(=O)[C@@H]2NC(=O)c2cccc(C(F)(F)F)c2)c1 [Compound I-158] | DCN1 (DCUND1) protein PONY domain (Homo sapiens (Human), UniProt Q96GG9) | IC50 | ≤ 200 nM |
| C=C(CN1CCC12COC2)C(=O)NCc1cccc([C@@H]2c3cnn(-c4ccccc4)c3N(CC)C(=O)[C@H]2NC(=O)c2cccc(C(F)(F)F)c2)c1 [Compound I-332] | DCN1 (DCUND1) protein PONY domain (Homo sapiens (Human), UniProt Q96GG9) | IC50 | ≤ 200 nM |
